B1: library; a variant is named by its letters at N, in order (parent)
chain: GCUGUCACCGGUGUAUUACCCUAGUGGUCGACCGGUCUGAUGAGUCUNNNNNNAGACGAAACAGC

- Variants of: B1
- assay.remarks: normalized RNA/DNA level without ligand (relative to sTRSVctl = 100) (log10 (% of sTRSVctl)); ligand: hypoxanthine (xanthine aptamer); higher = less ribozyme self-cleavage, higher mRNA level
- reported.conditions: HEK293T, reporter: mCherry (pCS4076), ligand present: no
metric: normalized RNA/DNA level without ligand (log10)

mutation_annotation=UCACGC assay_value=1.78
mutation_annotation=GGCGGC assay_value=1.52
mutation_annotation=GUCUUU assay_value=1.88
mutation_annotation=CGCACA assay_value=1.74
mutation_annotation=CGUUCC assay_value=1.91
mutation_annotation=ACACAC assay_value=1.74
mutation_annotation=UCCCCC assay_value=1.78
mutation_annotation=ACCCAC assay_value=1.79
mutation_annotation=UCGUAC assay_value=1.77
mutation_annotation=UCUCCC assay_value=1.77
mutation_annotation=UGUGAC assay_value=1.84
mutation_annotation=AUCUAA assay_value=1.78
mutation_annotation=ACCCUG assay_value=1.41
mutation_annotation=UUUGAC assay_value=1.84
mutation_annotation=GUUGUA assay_value=1.84
mutation_annotation=ACGUCU assay_value=1.65
mutation_annotation=UGGUGG assay_value=1.6
mutation_annotation=GUUCGC assay_value=1.96
mutation_annotation=GGAGCG assay_value=1.49
mutation_annotation=UGGGUA assay_value=1.85
mutation_annotation=CAAACC assay_value=1.87
mutation_annotation=GCGACA assay_value=1.57
